- assay.info: Lipophilicity, log P of the compound
- Format: physicochemical
- measurement.conditions: octanol/water
measure: logP
Format: numeric value only, no unit, no commentary.

Ask | Sample `Cc1cc(O)cc(C)c1C[C@H](N)C(=O)N[C@@H]1CCNc2ccc(Cc3ccc4c(c3)OCCO4)cc21.O=C(O)C(F)(F)F` — what was its logP?
Reply | 3.5

Ask | Sample `Cc1cc(O)cc(C)c1C[C@H](N)C(=O)N[C@@H]1CCN(C(=O)c2ccccc2)c2ccc(CN3CCc4ccccc4C3)cc21.O=C(O)C(F)(F)F` — what was its logP?
Reply | 4.5

Ask | Sample `Cc1cc(O)cc(C)c1C[C@H](N)C(=O)N[C@@H]1CCN(C(=O)C2CC2)c2ccc(Cc3ccc4ccccc4c3)cc21` — what was its logP?
Reply | 5.1

Ask | Sample `Cc1cc(O)cc(C)c1C[C@H](N)C(=O)N[C@@H]1CCNc2ccc(Cc3cnc4ccccc4c3)cc21.O=C(O)C(F)(F)F` — what was its logP?
Reply | 3.7

Ask | Sample `Cc1cc(O)cc(C)c1C[C@H](N)C(=O)N[C@@H]1CCN(S(C)(=O)=O)c2ccc(Cc3cc4ccccc4o3)cc21.O=C(O)C(F)(F)F` — what was its logP?
Reply | 3.8

Ask | Sample `Cc1cc(O)cc(C)c1C[C@H](N)C(=O)N[C@@H]1CCN(C(=O)c2ccccc2)c2ccc(Cc3ccc4c(c3)OCCO4)cc21.O=C(O)C(F)(F)F` — what was its logP?
Reply | 4.4

Ask | Sample `Cc1cc(O)cc(C)c1C[C@H](N)C(=O)N[C@@H]1CCN(C(=O)C2CC2)c2ccc(Cc3ccccc3)cc21` — what was its logP?
Reply | 3.9
